Target: T1, soluble guanylyl cyclase alpha 1 (sGCα1) (UniProt Q02108 1-690)
T1 sequence (looked up): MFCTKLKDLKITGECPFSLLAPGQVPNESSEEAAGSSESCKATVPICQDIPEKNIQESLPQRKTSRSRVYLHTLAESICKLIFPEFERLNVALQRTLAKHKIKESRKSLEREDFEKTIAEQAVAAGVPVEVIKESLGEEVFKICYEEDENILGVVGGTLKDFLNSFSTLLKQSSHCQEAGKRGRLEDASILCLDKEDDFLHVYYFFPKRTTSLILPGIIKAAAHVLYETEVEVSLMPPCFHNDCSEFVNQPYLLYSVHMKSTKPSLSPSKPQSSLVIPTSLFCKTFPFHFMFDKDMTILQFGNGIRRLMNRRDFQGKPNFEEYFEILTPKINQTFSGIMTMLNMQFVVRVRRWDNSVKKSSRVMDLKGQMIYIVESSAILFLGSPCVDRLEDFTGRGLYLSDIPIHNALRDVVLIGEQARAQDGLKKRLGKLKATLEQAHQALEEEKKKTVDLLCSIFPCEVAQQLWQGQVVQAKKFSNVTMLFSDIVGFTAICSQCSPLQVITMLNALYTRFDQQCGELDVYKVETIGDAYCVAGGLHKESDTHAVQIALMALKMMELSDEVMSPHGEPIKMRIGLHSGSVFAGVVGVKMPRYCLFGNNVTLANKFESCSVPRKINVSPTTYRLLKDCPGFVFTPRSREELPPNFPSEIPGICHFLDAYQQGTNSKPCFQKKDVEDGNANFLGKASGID
Test: cell-based or functional assay
Ends that are not written are not given here.
# note: exactly 40 µM is not below, so it is Condition not met; use Condition met for IC50 (µM), cytotoxicity, Day 6, LNCaP cell culture strictly under it

Consider TFCRRRRRRRR [Peptide TC3-8R] . Does its IC50 (µM), cytotoxicity, Day 6, LNCaP cell culture lie strictly below 40 µM?
Condition not met

Consider FCKAFPRRRRRRRR-NH2 [Peptide FP6-8R] . Does its IC50 (µM), cytotoxicity, Day 6, LNCaP cell culture lie strictly below 40 µM?
Condition met

Consider Ac-TFCKAFPFHIIRRRRRRRR-OH [Peptide A-8R] . Does its IC50 (µM), cytotoxicity, Day 6, LNCaP cell culture lie strictly below 40 µM?
Condition met

Consider ACKAFRRRRRRRR-NH2 [Peptide FF5-F1A-8R] . Does its IC50 (µM), cytotoxicity, Day 6, LNCaP cell culture lie strictly below 40 µM?
Condition not met

Consider FCKARRRRRRRR [Peptide FA4-8R] . Does its IC50 (µM), cytotoxicity, Day 6, LNCaP cell culture lie strictly below 40 µM?
Condition not met
